# PROTOCOL DETAILS: Selectivity index, ratio IC50 for cytotoxicity against human LO2 cells assessed as reduction in cell viability after 72 hrs by MTT assay to IC50 for anticancer activity against human HCT116 cells assessed as reduction in cell viability after 72 hrs by MTT assay
# Assay type: toxicity, cell-based
# SETTINGS: LO2 cells versus HCT116 cells, read-out: Ratio IC50
MEASURED PARAMETER: selectivity ratio at 72 h

Return reported selectivity ratio at 72 h; argument: CC1(C)CC[C@]2(C(=O)O)CC[C@]3(C)C(=CC[C@@H]4[C@@]5(C)CC[C@H](O[C@@H]6O[C@H](CO[C@@H]7OC[C@H](O)[C@H](O)[C@H]7O)[C@@H](O)[C@H](O)[C@H]6NC(=O)C(Cl)Cl)C(C)(C)[C@@H]5CC[C@]43C)[C@@H]2C1 12.7
